All values here come from patent US8575145B2.

This listing pairs compounds with measured pIC50.
TESTED_ON: UniProt P11309
Sequence (P11309 whole entry, species assumed): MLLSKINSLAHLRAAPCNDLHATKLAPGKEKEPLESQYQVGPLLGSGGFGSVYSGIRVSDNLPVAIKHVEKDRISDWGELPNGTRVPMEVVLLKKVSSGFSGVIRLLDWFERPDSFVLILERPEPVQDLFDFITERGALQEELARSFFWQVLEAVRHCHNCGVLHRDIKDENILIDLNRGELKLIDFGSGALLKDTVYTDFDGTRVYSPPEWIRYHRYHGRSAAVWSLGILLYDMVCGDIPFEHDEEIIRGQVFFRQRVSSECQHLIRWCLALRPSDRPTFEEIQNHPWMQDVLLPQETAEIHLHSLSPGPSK
ASSAY_SUMMARY: PIM-1 Enzyme Assay
Format: biochemical
MEASUREMENT_CONDITIONS: 35 μM ATP, 0.25 nM PIM-1; dihydrochloride
Counter-ions that a name gives are not always drawn.
Notebook: values listed as pIC50 are -log10 of the concentration (mol/L).

| COMPOUND | TESTED_ON | ASSAY_RESULT |
| --- | --- | --- |
| c1cc(OC2CCCNCC2)c2nc(-c3nnc4ccccn34)ccc2c1 (centres unmarked) [Example 52, dihydrochloride] | UniProt P11309 | 8.70 |

Look at this compound and give its reported pIC50. Cc1ccc2nnc(-c3ccc4cccc(OC5CCNCCC5F)c4n3)n2c1 (single isomer, unassigned) [Example 99, dihydrochloride]
7.76
